- Test target: T1, factor VIIa-tissue factor complex (human recombinant factor VIIa with recombinant soluble human tissue factor) (human, UniProt P08709 61-466; P13726 33-251, limits assumed)
- T1 construct: The complex was formed from 50 nM factor VIIa and 100 nM soluble tissue factor in 5 mM CaCl2; Factor VIIa is itself a two-chain enzyme; also called FVIIa-TF; VIIa-TF
- T1 sequence (P08709 61-466 limits assumed, chain 1 of 2): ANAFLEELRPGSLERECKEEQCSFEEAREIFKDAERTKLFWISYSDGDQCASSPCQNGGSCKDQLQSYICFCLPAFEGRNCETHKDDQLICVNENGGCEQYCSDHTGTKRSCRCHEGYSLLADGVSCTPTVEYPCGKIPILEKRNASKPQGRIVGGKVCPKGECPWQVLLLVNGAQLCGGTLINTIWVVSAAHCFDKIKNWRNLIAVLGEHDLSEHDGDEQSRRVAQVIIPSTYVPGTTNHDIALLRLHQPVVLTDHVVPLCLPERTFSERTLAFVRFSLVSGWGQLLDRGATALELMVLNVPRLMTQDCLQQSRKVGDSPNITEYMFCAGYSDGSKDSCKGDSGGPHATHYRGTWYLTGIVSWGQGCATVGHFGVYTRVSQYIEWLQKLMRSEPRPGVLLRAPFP
- T1 sequence (P13726 33-251 limits assumed, chain 2 of 2): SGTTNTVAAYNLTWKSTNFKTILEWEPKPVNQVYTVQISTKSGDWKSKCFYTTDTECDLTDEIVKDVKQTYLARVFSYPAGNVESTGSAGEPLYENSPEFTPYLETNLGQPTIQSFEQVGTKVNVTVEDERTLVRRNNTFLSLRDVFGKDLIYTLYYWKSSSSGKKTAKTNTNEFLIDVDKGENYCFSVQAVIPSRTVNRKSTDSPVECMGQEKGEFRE
- Test method notes: chromogenic (S-2288) amidolytic inhibition assay, FVIIa 50 nM / soluble TF 100 nM
Listed next: entries and their corresponding pKi.
Give only the number. pKi is defined as minus log10 of concentration in molar units.

Some binders with known pKi results, for comparison:
Binder	pKi
recombinant human tissue factor pathway inhibitor-2 (TFPI-2), full-length (other, Eukaryotically expressed recombinant full-length protein, described as a 213 amino acid polypeptide and prepared by a published method (Sprecher et al.); also called full-length TFPI-2; intact TFPI-2) DAAQEPTGNNAEICLLPLDYGPCRALLLRYYYDRYTQSCRQFLYGGCEGNANNFYTWEACDDACWRIEKVPKVCRLQVSVDDQCEGSTEKYFFNLSSMTCEKFFSGGCHRNRIENRFPDEATCMGFCAPKKIPSFCYSPKDEGLCSANVTRYYFNPRYRTCDAFTYTGCGGNDNNFVSREDCKRACAKALKKKKKMPKLRFASRIRKIRKKQF	5.72
F42A KD1 (other, Point mutant of His-tagged KD1, KD1 numbering; also called F42A (F33A); not shown: N-terminal decahistidine-tag leader and enterokinase cleavage site from pET19b) DAAQEPTGNNAEICLLPLDYGPCRALLLRYYYDRYTQSCRQALYGGCEGNANNFYTWEACDDACWRIEKVPKV	4.21
Y20A KD1 (other, Point mutant of His-tagged KD1, KD1 numbering; also called Y20A (Y11A); not shown: N-terminal decahistidine-tag leader and enterokinase cleavage site from pET19b) DAAQEPTGNNAEICLLPLDAGPCRALLLRYYYDRYTQSCRQFLYGGCEGNANNFYTWEACDDACWRIEKVPKV	5.87

-- ask Which pKi is listed for R29A KD1 (other, Point mutant of His-tagged KD1, KD1 numbering; also called R29A (R20A); not shown: N-terminal decahistidine-tag leader and enterokinase cleavage site from pET19b) DAAQEPTGNNAEICLLPLDYGPCRALLLAYYYDRYTQSCRQFLYGGCEGNANNFYTWEACDDACWRIEKVPKV ?
-- reply 5.41
